As shown below, each of these compounds has a reported concentration at 0.5 h value.
experiment-description: Blood (plasma) levels during intravenous infusion in anesthetized dog, HPLC with electrochemical detection
Format: in vivo
setup-conditions: plasma, iv, i.v. infusion 20 ug/kg/min, infusion time 30 mins
Protocol: The data in Table 1 were obtained from a dog anesthetized with sodium pentobarbital (30 mg/kg, i.v.). The right femoral vein was cannulated for administration of drug and the left femoral vein was used for withdrawal of blood samples. All blood samples were collected in heparinized chilled tubes. The blood was centrifuged to separate red cells and the plasma was frozen. […] The concentrations of Compound I and dobutamine in plasma were measured using HPLC with electrochemical detection. […]
readout-label: concentration at 0.5 h (ng/mL)

>>> numeric_readout("CC(CCc1ccc(O)cc1)NCCc1ccc(O)c(O)c1 (centres unmarked) [Dobutamine, reference compound]")
158
>>> numeric_readout("CC(CCc1cccc(C(N)=O)c1)NCCc1ccc(O)c(O)c1 (centres unmarked)")
874

###

experiment-description: Blood (plasma) levels during intravenous infusion in anesthetized dog, HPLC with electrochemical detection
Type: in vivo
setup-conditions: plasma, iv, i.v. infusion 20 ug/kg/min, infusion time 20 mins
As shown below, each of these compounds has a reported concentration at 20 min value.
readout-label: concentration at 20 min (ng/mL)

>>> numeric_readout("CC(CCc1cccc(C(N)=O)c1)NCCc1ccc(O)c(O)c1 (centres unmarked)")
451
>>> numeric_readout("CC(CCc1ccc(O)cc1)NCCc1ccc(O)c(O)c1 (centres unmarked) [Dobutamine, reference compound]")
176

###

experiment-description: Blood (plasma) levels during intravenous infusion in anesthetized dog, HPLC with electrochemical detection
Type: in vivo
setup-conditions: plasma, iv, i.v. infusion 20 ug/kg/min, infusion time 10 mins
readout-label: concentration at 10 min (ng/mL)

>>> numeric_readout("CC(CCc1ccc(O)cc1)NCCc1ccc(O)c(O)c1 (centres unmarked) [Dobutamine, reference compound]")
155
>>> numeric_readout("CC(CCc1cccc(C(N)=O)c1)NCCc1ccc(O)c(O)c1 (centres unmarked)")
417

###

As shown below, each of these compounds has a reported Blood Pressure, Mean ± S.E. (change in diastolic blood pressure) value.
System: diastolic blood pressure
experiment-description: Arterial blood pressure change, intravenous infusion, anesthetized open-chest dogs
Assay type: in vivo
setup-conditions: dose 4 times larger than CC50, i.v.
readout-label: Blood Pressure, Mean ± S.E. (change in diastolic blood pressure)

>>> result("CC(CCc1ccc(O)cc1)NCCc1ccc(O)c(O)c1 (centres unmarked) [Dobutamine, reference compound]")
"7.8 ± 4.5"
>>> result("CC(CCc1cccc(C(N)=O)c1)NCCc1ccc(O)c(O)c1 (centres unmarked)")
"5.3 ± 4.5"
>>> result("NC(=O)c1ccc(CCNCCc2ccc(O)c(O)c2)cc1")
"26 ± 10"
>>> result("NC(=O)c1cccc(CCCNCCc2ccc(O)c(O)c2)c1")
"22.3 ± 16.2"
>>> result("NC(=O)c1cccc(CCNCCc2ccc(O)c(O)c2)c1")
"-8 ± 5"
